Measured values drawn from paper PMC11098746 for this set.

SUBJECT_OF_TEST: Circumsporozoite protein (CSP) (Plasmodium falciparum (isolate 3D7), UniProt Q7K740)
Sequence (Q7K740 19-374): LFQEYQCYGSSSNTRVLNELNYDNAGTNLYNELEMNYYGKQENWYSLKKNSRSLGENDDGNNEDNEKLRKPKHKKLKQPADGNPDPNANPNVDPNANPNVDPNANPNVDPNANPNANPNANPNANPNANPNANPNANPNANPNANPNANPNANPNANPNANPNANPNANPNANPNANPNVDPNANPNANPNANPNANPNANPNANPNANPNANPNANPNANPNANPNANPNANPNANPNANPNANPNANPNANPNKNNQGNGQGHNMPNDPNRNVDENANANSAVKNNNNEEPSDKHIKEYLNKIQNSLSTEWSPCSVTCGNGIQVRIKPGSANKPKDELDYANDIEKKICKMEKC
EXPERIMENT_SUMMARY: AVEXIS screen signal:noise (double-corrected)
No end group written: not given here.
VALUE_KIND: binding score
Response field accepts a number only; no unit should be typed.

(Q) Query binding score for ADP301 (protein, bait human Fc-tagged dimer) MAKLIALTLLGMGLALFRNHQSSYQTRLNALREVQPVELPNCNLVKGIETGSEDLEILPNGLAFISSGLKYPGIKSFNPNSPGKILLMDLNEEDPTVLELGITGSKFDVSSFNPHGISTFTDEDNAMYLLVVNHPDAKSTVELFKFQEEEKSLLHLKTIRHKLLPNLNDIVAVGPEHFYGTNDHYFLDPYLQSWEMYLGLAWSYVVYYSPSEVRVVAEGFDFANGINISPDGKYVYIAELLAHKIHVYEKHANWTLTPLKSLDFNTLVDNISVDPETGDLWVGCHPNGMKIFFYDSENPPASEVLRIQNILTEEPKVTQVYAENGTVLQGSTVASVYKGKLLIGTVFHKALYCEL
(A) 1.58

(Q) Query binding score for ADP279 (protein, also: human Fc-tagged dimer) RMAHKFITGKLVEDERSDREETESSEGEEAAAGGGAKSRPLANGHPILNNNHRKND
(A) 1.03

(Q) Query binding score for ADP109 (protein, bait human Fc-tagged dimer) MGIQGGSVLFGLLLVLAVFCHSGHSLQCYNCPNPTADCKTAVNCSSDFDACLITKAGLQVYNKCWKFEHCNFNDVTTRLRENELTYYCCKKDLCNFNEQLEN
(A) 1.68
